Source listed as the supplement of paper PMC9117331.

system: PC9; assay: JNK reporter activity score (signed KS statistic vs DMSO) (signed KS statistic (-1 to 1)); higher = stronger activation of the pathway reporter relative to DMSO; details: 0.5 µM; time after treatment 48 h; PC9 signalome
Item-by-item account of JNK reporter activity score
Measured Metric: JNK reporter activity score

[
  {
    "Compound": "O=C(/C=C/c1cccc(S(=O)(=O)Nc2ccccc2)c1)NO",
    "Quantitative Readout": -0.122
  },
  {
    "Compound": "C=CC(=O)N1CCC[C@@H](n2nc(-c3ccc(Oc4ccccc4)cc3)c3c(N)ncnc32)C1",
    "Quantitative Readout": -0.17
  },
  {
    "Compound": "Cc1c(NC(=O)OC[C@@H]2COCCN2)cn2ncnc(Nc3ccc4c(cnn4Cc4cccc(F)c4)c3)c12",
    "Quantitative Readout": -0.0881
  },
  {
    "Compound": "O=C(NOC[C@H](O)CO)c1ccc(F)c(F)c1Nc1ccc(I)cc1F",
    "Quantitative Readout": 0.303
  },
  {
    "Compound": "COc1ncc(-c2ccc3nccc(-c4ccnnc4)c3c2)cc1NS(=O)(=O)c1ccc(F)cc1F",
    "Quantitative Readout": -0.305
  },
  {
    "Compound": "COc1ccc(-c2cc3c(C)nc(N)nc3n([C@H]3CC[C@H](OCCO)CC3)c2=O)cn1",
    "Quantitative Readout": -0.166
  },
  {
    "Compound": "Cn1cnc2c(F)c(Nc3ccc(Br)cc3Cl)c(C(=O)NOCCO)cc21 [AZD6244 (Selumetinib)]",
    "Quantitative Readout": 0.145
  },
  {
    "Compound": "CN(C)C/C=C/C(=O)Nc1cc2c(Nc3ccc(F)c(Cl)c3)ncnc2cc1O[C@H]1CCOC1",
    "Quantitative Readout": 0.173
  },
  {
    "Compound": "Nc1ncnc2c1c(-c1cnc3[nH]ccc3c1)nn2C1CCCC1",
    "Quantitative Readout": -0.111
  }
]

###

Item-by-item account of RAR reporter activity score
system: PC9; test: RAR reporter activity score (signed KS statistic vs DMSO) (signed KS statistic (-1 to 1)); higher = stronger activation of the pathway reporter relative to DMSO; conditions: 0.5 µM; time after treatment 48 h; PC9 signalome

[
  {
    "Molecule": "COc1ncc(-c2ccc3nccc(-c4ccnnc4)c3c2)cc1NS(=O)(=O)c1ccc(F)cc1F",
    "Target System": "PC9",
    "RAR reporter activity score": 0.43
  },
  {
    "Molecule": "C#CCC(Cc1cnc2nc(N)nc(N)c2n1)c1ccc(C(=O)N[C@@H](CCC(=O)O)C(=O)O)cc1 (stereo partly specified) [Pralatrexate(Folotyn)]",
    "Target System": "PC9",
    "RAR reporter activity score": 0.231
  },
  {
    "Molecule": "O=C(NOC[C@H](O)CO)c1ccc(F)c(F)c1Nc1ccc(I)cc1F",
    "Target System": "PC9",
    "RAR reporter activity score": 0.142
  },
  {
    "Molecule": "Cn1cnc2c(F)c(Nc3ccc(Br)cc3Cl)c(C(=O)NOCCO)cc21 [AZD6244 (Selumetinib)]",
    "Target System": "PC9",
    "RAR reporter activity score": -0.154
  },
  {
    "Molecule": "C[C@H](NC(=O)Cc1cc(F)cc(F)c1)C(=O)N[C@@H]1C(=O)N(C)c2ccccc2-c2ccccc21",
    "Target System": "PC9",
    "RAR reporter activity score": 0.0626
  },
  {
    "Molecule": "CC(C)n1nc(-c2ccc3oc(N)nc3c2)c2c(N)ncnc21",
    "Target System": "PC9",
    "RAR reporter activity score": 0.0862
  },
  {
    "Molecule": "C=CC(=O)N1CCC[C@@H](n2nc(-c3ccc(Oc4ccccc4)cc3)c3c(N)ncnc32)C1",
    "Target System": "PC9",
    "RAR reporter activity score": 0.562
  },
  {
    "Molecule": "O=C(Nc1cc(C(F)(F)F)cc(C(F)(F)F)c1)c1cc(Cl)ccc1O",
    "Target System": "PC9",
    "RAR reporter activity score": 0.372
  },
  {
    "Molecule": "C[C@@H](Oc1cc(-n2cnc3ccc(CN4CCN(C)CC4)cc32)sc1C(N)=O)c1ccccc1C(F)(F)F",
    "Target System": "PC9",
    "RAR reporter activity score": 0.399
  },
  {
    "Molecule": "CCN1CCN(Cc2ccc(Nc3ncc(F)c(-c4cc(F)c5nc(C)n(C(C)C)c5c4)n3)nc2)CC1",
    "Target System": "PC9",
    "RAR reporter activity score": 0.2
  },
  {
    "Molecule": "COc1ccc(-c2ccc3c(N4CCOCC4)nc(N4C[C@@H](C)O[C@@H](C)C4)nc3n2)cc1CO",
    "Target System": "PC9",
    "RAR reporter activity score": -0.302
  },
  {
    "Molecule": "CC(C)NC[C@@H](C(=O)N1CCN(c2ncnc3c2[C@H](C)C[C@H]3O)CC1)c1ccc(Cl)cc1 [Ipatasertib (GDC-0068)]",
    "Target System": "PC9",
    "RAR reporter activity score": -0.297
  },
  {
    "Molecule": "Cc1ccc([N+](=O)[O-])cc1S(=O)(=O)N(C)/N=C/c1cnc2ccc(Br)cn12",
    "Target System": "PC9",
    "RAR reporter activity score": 0.101
  },
  {
    "Molecule": "CN1CCN(c2nc(C3=C(c4c[nH]c5ccccc45)C(=O)NC3=O)c3ccccc3n2)CC1 [Sotrastaurin (AEB071)]",
    "Target System": "PC9",
    "RAR reporter activity score": -0.104
  },
  {
    "Molecule": "Nc1ncnc2c1c(-c1cnc3[nH]ccc3c1)nn2C1CCCC1",
    "Target System": "PC9",
    "RAR reporter activity score": 0.646
  },
  {
    "Molecule": "CO[C@H]1C[C@@H]2CC[C@@H](C)[C@@](O)(O2)C(=O)C(=O)N2CCCC[C@H]2C(=O)O[C@H]([C@H](C)C[C@@H]2CC[C@@H](OP(C)(C)=O)[C@H](OC)C2)CC(=O)[C@H](C)/C=C(\\C)[C@@H](O)[C@@H](OC)C(=O)[C@H](C)C[C@H](C)/C=C/C=C/C=C/1C [Deforolimus (MK-8669)]",
    "Target System": "PC9",
    "RAR reporter activity score": -0.292
  }
]

###

test system: PC9; test: PKA reporter activity score (signed KS statistic vs DMSO) (signed KS statistic (-1 to 1)); higher = stronger activation of the pathway reporter relative to DMSO; details: 0.5 µM; time after treatment 48 h; PC9 signalome
Decide by PKA reporter activity score: equal to or exceeding 0.06 means Satisfied, less means Not satisfied.

[
  {
    "Molecule": "C=CC(=O)Nc1cccc(Sc2nc(Nc3ccc(N4CCN(C)CC4)cc3)ncc2Cl)c1",
    "Assigned Class": "Not satisfied"
  },
  {
    "Molecule": "CO[C@H]1C[C@@H]2CC[C@@H](C)[C@@](O)(O2)C(=O)C(=O)N2CCCC[C@H]2C(=O)O[C@H]([C@H](C)C[C@@H]2CC[C@@H](O)[C@H](OC)C2)CC(=O)[C@H](C)/C=C(\\C)[C@@H](O)[C@@H](OC)C(=O)[C@H](C)C[C@H](C)/C=C/C=C/C=C/1C [Rapamycin (Sirolimus)]",
    "Assigned Class": "Satisfied"
  },
  {
    "Molecule": "CN1CCN(c2nc(C3=C(c4c[nH]c5ccccc45)C(=O)NC3=O)c3ccccc3n2)CC1 [Sotrastaurin (AEB071)]",
    "Assigned Class": "Satisfied"
  },
  {
    "Molecule": "CCN(CC)CCNC(=O)c1c(C)[nH]c(/C=C2\\C(=O)Nc3ccc(F)cc32)c1C [Sunitinib Malate (Sutent)]",
    "Assigned Class": "Satisfied"
  },
  {
    "Molecule": "C[C@H](NC(=O)Cc1cc(F)cc(F)c1)C(=O)N[C@@H]1C(=O)N(C)c2ccccc2-c2ccccc21",
    "Assigned Class": "Not satisfied"
  },
  {
    "Molecule": "CC(C)NC[C@@H](C(=O)N1CCN(c2ncnc3c2[C@H](C)C[C@H]3O)CC1)c1ccc(Cl)cc1 [Ipatasertib (GDC-0068)]",
    "Assigned Class": "Satisfied"
  },
  {
    "Molecule": "O=C(NOC[C@H](O)CO)c1ccc(F)c(F)c1Nc1ccc(I)cc1F",
    "Assigned Class": "Not satisfied"
  },
  {
    "Molecule": "Cc1c(NC(=O)OC[C@@H]2COCCN2)cn2ncnc(Nc3ccc4c(cnn4Cc4cccc(F)c4)c3)c12",
    "Assigned Class": "Not satisfied"
  },
  {
    "Molecule": "O=C(NCCCNc1nc(Nc2cccc(NC(=O)N3CCCC3)c2)ncc1I)c1cccs1",
    "Assigned Class": "Not satisfied"
  },
  {
    "Molecule": "O=C(/C=C/c1cccc(S(=O)(=O)Nc2ccccc2)c1)NO [Belinostat (PXD101)]",
    "Assigned Class": "Not satisfied"
  },
  {
    "Molecule": "Cc1ccc([N+](=O)[O-])cc1S(=O)(=O)N(C)/N=C/c1cnc2ccc(Br)cn12",
    "Assigned Class": "Not satisfied"
  },
  {
    "Molecule": "CCN1CCN(Cc2ccc(Nc3ncc(F)c(-c4cc(F)c5nc(C)n(C(C)C)c5c4)n3)nc2)CC1",
    "Assigned Class": "Not satisfied"
  },
  {
    "Molecule": "Cc1cc(C(=O)NOCCO)c(Nc2ccc(I)cc2F)n(C)c1=O",
    "Assigned Class": "Not satisfied"
  },
  {
    "Molecule": "CC(=O)Nc1cccc(-n2c(=O)n(C3CC3)c(=O)c3c(Nc4ccc(I)cc4F)n(C)c(=O)c(C)c32)c1",
    "Assigned Class": "Not satisfied"
  }
]
